biological target: Human CD33 ECD-HSA (human); assay: ProteOn SPR, mAb captured by anti-human Fc, 1:1 Langmuir fit
Sequence (chain, as listed by the source): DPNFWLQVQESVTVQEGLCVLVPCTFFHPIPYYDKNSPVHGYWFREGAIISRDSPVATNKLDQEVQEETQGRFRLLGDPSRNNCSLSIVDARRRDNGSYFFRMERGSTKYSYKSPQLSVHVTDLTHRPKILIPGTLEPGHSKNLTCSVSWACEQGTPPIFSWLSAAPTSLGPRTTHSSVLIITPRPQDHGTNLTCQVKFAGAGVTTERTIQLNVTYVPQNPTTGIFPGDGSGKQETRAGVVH
# kon values compiled below
Record the value in M⁻¹ s⁻¹, omitting the unit from your answer.

Given item C33B101 (antibody, V domains shown, huIgG1 F405L; 260 is used; also called C33F106; C33H69/C4LL152) VH: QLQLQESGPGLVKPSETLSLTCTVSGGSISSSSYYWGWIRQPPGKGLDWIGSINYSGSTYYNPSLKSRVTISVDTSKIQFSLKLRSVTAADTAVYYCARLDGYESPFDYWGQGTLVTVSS VL: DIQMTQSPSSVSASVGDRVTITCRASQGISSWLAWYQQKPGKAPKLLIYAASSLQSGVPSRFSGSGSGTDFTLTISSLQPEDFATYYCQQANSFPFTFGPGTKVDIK , the value recorded as its kon is 162000

Given item C33B48 (antibody, IgG1, V domains shown, huIgG1 F405L; also called C33F53; C33H80/C33L73) VH: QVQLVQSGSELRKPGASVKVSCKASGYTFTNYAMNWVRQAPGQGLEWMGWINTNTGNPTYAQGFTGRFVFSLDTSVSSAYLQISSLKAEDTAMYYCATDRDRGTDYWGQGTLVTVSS VL: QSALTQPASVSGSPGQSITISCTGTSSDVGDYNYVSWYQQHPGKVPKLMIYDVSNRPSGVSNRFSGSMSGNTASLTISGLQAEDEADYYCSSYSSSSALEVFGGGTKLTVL , the value recorded as its kon is 1.62e+06
